# System: H1975 cells
# EXPERIMENT DESCRIPTION: Single agent IC50 in H1975 cells, alamarBlue viability (Example 2)
# Format: cell-based, human
# EXPERIMENTAL PARAMETERS: Homo sapiens, NCI-H1975, 72 h exposure, XLFit
QUANTITY KIND: IC50

[
  {
    "COMPOUND": "CC(C)c1cc(-c2nnc(O)n2-c2ccc3c(ccn3C)c2)c(O)cc1O [Compound 1]",
    "RESULT": "15 nM"
  }
]
